This collection of values is drawn from patent US7118895B2.

- Test system: Crude diglycosidase
- testDescription: Examination of substrate concentration in the conversion into isoflavone aglycons by diglycosidase using soybean materials;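 further: percent of the isoflavone family total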
- Type: biochemical, Penicillium multicolor IAM7153
- conditionNotes: concentrated soybean protein, substrate concentration 20%, heat treatment of enzyme yes, reaction time 6 h
- Description: Into 20 mM acetate buffer of pH 4.0 was suspended 0.1 g, 0.25 g, 0.5 g, 1.0 g, or 1.5 g of each of various soybean materials (roasted soy flour (manufactured by Fuji Shokuryo K.K.), soymilk (manufactured by Gitoh Shokuhin K.K.), defatted soybean (manufactured by Fuji Seiyu K.K.), concentrated soybean protein (manufactured by Fuji Seiyu K.K.)). The pH of the suspension was measured and the liquid volume was adjusted to 4.5 mL while the pH was adjusted to 4.0 with 1N hydrochloric acid. […]
measurementName: Decomposition efficiency: ratio of each glycoside/aglycon within its isoflavone family

{"compound": "COc1cc2c(=O)c(-c3ccc(O)cc3)coc2cc1O[C@@H]1O[C@H](COC(=O)CC(=O)O)[C@@H](O)[C@H](O)[C@H]1O [malonylglycitin, 6″-O-malonylglycitin]", "result": "0.4%"}
{"compound": "COc1cc2c(=O)c(-c3ccc(O)cc3)coc2cc1O[C@@H]1O[C@H](COC(C)=O)[C@@H](O)[C@H](O)[C@H]1O [acetylglycitin, 6″-O-acetylglycitin]", "result": "35.8%"}
{"compound": "O=c1c(-c2ccc(O)cc2)coc2cc(O[C@@H]3O[C@H](CO)[C@@H](O)[C@H](O)[C@H]3O)ccc12 [diadzin]", "result": "52.8%"}
{"compound": "COc1cc2c(=O)c(-c3ccc(O)cc3)coc2cc1O[C@@H]1O[C@H](CO)[C@@H](O)[C@H](O)[C@H]1O [glycitin]", "result": "52.8%"}
{"compound": "CC(=O)OC[C@H]1O[C@@H](Oc2ccc3c(=O)c(-c4ccc(O)cc4)coc3c2)[C@H](O)[C@@H](O)[C@@H]1O [acetly-daidzin]", "result": "44.0%"}
